System: Dermacentor variabilis
Assay: In vitro contact test with adult hard ticks (Dermacentor variabilis)
Conditions: dose 0.2 μg/cm^2, 48 h, read-out: acaricidal activity
observation-type: pest or weed control at 0.2 µg/cm2, 0.2 µg/cm2 (%)
Quick note: give the figure in %, leave out the unit.

CN(C(=O)c1ccc(C#N)cc1)c1cccc(C(=O)Nc2c(Br)cc(C(F)(C(F)(F)F)C(F)(F)F)cc2C(F)(F)F)c1F 90

I looked up O=C(Nc1cccc(C(=O)Nc2c(I)cc(C(F)(C(F)(F)F)C(F)(F)F)cc2C(F)(F)F)c1F)c1ccc(Cl)cc1Cl and its pest or weed control at 0.2 µg/cm2, 0.2 µg/cm2 for Dermacentor variabilis was 90

I looked up O=C(Nc1cccc(C(=O)Nc2c(Br)cc(C(F)(C(F)(F)F)C(F)(F)F)cc2OC(F)(F)F)c1F)c1ccc(C(F)(F)F)nc1 and its pest or weed control at 0.2 µg/cm2, 0.2 µg/cm2 for Dermacentor variabilis was 90

----------
In this section, each of the compounds is paired with its reported pest or weed control at 0.2 µg/cm2, 0.2 µg/cm2.
Test system: Ctenocephalides felis
Assay: In vitro contact test with fleas
Conditions: dose 0.2 μg/cm^2, dead or moribund fleas after 48 h, read-out: insecticidal activity
Quick note: give the figure in %, leave out the unit.

Below: 2 compounds and their reported pest or weed control at 0.2 µg/cm2, 0.2 µg/cm2.
compound	unit-spec	endpoint-value
COc1ccc(C(=O)N(C)c2cccc(C(=O)Nc3c(I)cc(C(F)(C(F)(F)F)C(F)(F)F)cc3C(F)(F)F)c2F)cc1 [Compound 62]	%	95
CN(C(=O)c1ccc(C#N)cc1)c1cccc(C(=O)Nc2c(Br)cc(C(F)(C(F)(F)F)C(F)(F)F)cc2C(F)(F)F)c1 [Compound 4]	%	95

The compound O=C(Nc1cccc(C(=O)Nc2c(I)cc(C(F)(C(F)(F)F)C(F)(F)C(F)(F)F)cc2C(F)(F)F)c1F)c1ccc(C(F)(F)F)nc1 (stereo not drawn) [Compound 102] showed pest or weed control at 0.2 µg/cm2, 0.2 µg/cm2 equal to 95

----------
Test system: Dermacentor variabilis
Assay: In vitro contact test with adult hard ticks (Dermacentor variabilis)
Conditions: dose 0.2 μg/cm^2, 48 h, read-out: acaricidal activity
observation-type: pest or weed control at 0.2 µg/cm2, 0.2 µg/cm2 (%)
Quick note: give the figure in %, leave out the unit.

O=C(Nc1cccc(C(=O)Nc2c(I)cc(C(F)(C(F)(F)F)C(F)(F)F)cc2OC(F)F)c1F)c1ccc(F)cc1 90
CN(C(=O)c1ccc(F)cc1)c1cccc(C(=O)Nc2c(I)cc(C(F)(C(F)(F)F)C(F)(F)F)cc2OC(F)F)c1F 90

Now let's try a different one.
The compound N#Cc1ccc(C(=O)Nc2cccc(C(=O)Nc3c(Br)cc(C(F)(C(F)(F)F)C(F)(F)F)cc3C(F)(F)F)c2F)cc1 showed pest or weed control at 0.2 µg/cm2, 0.2 µg/cm2 equal to 90

----------
In this section, each of the compounds is paired with its reported inhibition in vivo at 2 mg/kg.
System: Ctenocephalides felis
Assay: Systemic treatment in-vivo test with cat flea on rats
Details: Ctenocephalides felis, ip, intraperitoneal injection, 2 mg/kg, SD 9, read-out: Geometric mean percent reduction in live flea (Ctenocephalides felis) counts compared to untreated control rats
Quick note: give the figure in %, leave out the unit.

Below: 2 compounds and their reported inhibition in vivo at 2 mg/kg.
compound	target-or-test-system	inhibition in vivo at 2 mg/kg [%]
CN(C(=O)c1ccc(F)c(F)c1)c1cccc(C(=O)Nc2c(I)cc(C(F)(C(F)(F)F)C(F)(F)F)cc2C(F)(F)F)c1F	Ctenocephalides felis	96
O=C(Nc1cccc(C(=O)Nc2c(I)cc(C(F)(C(F)(F)F)C(F)(F)F)cc2C(F)(F)F)c1F)c1ccc(C(F)(F)F)nc1	Ctenocephalides felis	96

The compound CN(C(=O)c1ccccc1)c1cccc(C(=O)Nc2c(Br)cc(C(F)(C(F)(F)F)C(F)(F)F)cc2C(F)(F)F)c1F [Compound (B), reference compound] showed inhibition in vivo at 2 mg/kg equal to 32

The compound CN(C(=O)c1ccc(F)nc1)c1cccc(C(=O)Nc2c(I)cc(C(F)(C(F)(F)F)C(F)(F)F)cc2C(F)(F)F)c1F showed inhibition in vivo at 2 mg/kg equal to 98

The reported measurements were obtained from patent US11696913B2.
